# tested_on: UniProt P48764
# Sequence (P48764 26-834, species assumed): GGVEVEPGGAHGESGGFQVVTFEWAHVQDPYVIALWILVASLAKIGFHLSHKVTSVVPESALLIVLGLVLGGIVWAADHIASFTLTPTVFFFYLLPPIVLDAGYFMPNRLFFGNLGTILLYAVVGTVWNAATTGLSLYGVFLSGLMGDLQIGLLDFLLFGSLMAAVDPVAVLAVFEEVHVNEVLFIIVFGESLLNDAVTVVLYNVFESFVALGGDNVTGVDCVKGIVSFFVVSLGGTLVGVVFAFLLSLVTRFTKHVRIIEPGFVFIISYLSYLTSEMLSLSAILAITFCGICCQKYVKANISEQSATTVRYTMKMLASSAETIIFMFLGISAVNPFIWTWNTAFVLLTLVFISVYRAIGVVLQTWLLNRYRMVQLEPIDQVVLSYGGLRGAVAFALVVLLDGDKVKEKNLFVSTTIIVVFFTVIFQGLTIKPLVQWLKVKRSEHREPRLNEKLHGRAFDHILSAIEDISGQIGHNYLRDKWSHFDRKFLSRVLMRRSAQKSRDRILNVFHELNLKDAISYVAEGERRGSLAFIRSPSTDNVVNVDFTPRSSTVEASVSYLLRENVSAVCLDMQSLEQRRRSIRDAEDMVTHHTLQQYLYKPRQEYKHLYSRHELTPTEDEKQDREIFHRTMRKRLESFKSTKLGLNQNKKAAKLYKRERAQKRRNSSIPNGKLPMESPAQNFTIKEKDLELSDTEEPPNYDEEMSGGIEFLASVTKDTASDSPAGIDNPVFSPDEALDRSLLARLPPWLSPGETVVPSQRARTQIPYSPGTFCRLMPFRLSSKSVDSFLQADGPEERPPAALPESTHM
# assay_details: Determination of the NHE-inhibitory effect (recovery of intracellular pH after acidification, BCECF)
# test_parameters: BCECF fluorescence, NHE subtype not given
measured_quantity: IC50 (nM)

* CCN(c1c(Nc2ccc([C@@H]3CN(C)Cc4c(Cl)cc(Cl)cc43)cc2)c(=O)c1=O)C(C)C | 680
* CN1Cc2c(Cl)cc(Cl)cc2[C@H](c2ccc(Nc3c(N4CCCC4)c(=O)c3=O)cc2)C1 | 230
* CN1Cc2c(Cl)cc(Cl)cc2[C@H](c2cccc(Nc3c(N(C)C)c(=O)c3=O)c2)C1 | 98.5
* CN1Cc2c(Cl)cc(Cl)cc2[C@H](c2ccccc2Nc2c(N3CCCC3)c(=O)c2=O)C1 | 110
* CCN(CC)c1c(Nc2ccc([C@@H]3CN(C)Cc4c(Cl)cc(Cl)cc43)cc2)c(=O)c1=O | 210
* CC(C)N(C)c1c(Nc2cccc([C@@H]3CN(C)Cc4c(Cl)cc(Cl)cc43)c2)c(=O)c1=O | 130
* CCCN(C)c1c(Nc2ccccc2[C@@H]2CN(C)Cc3c(Cl)cc(Cl)cc32)c(=O)c1=O | 850
* CN1Cc2c(Cl)cc(Cl)cc2[C@H](c2cccc(Nc3c(N4CCCC4)c(=O)c3=O)c2)C1 | 52
* CC(C)N(C)c1c(Nc2ccc([C@@H]3CN(C)Cc4c(Cl)cc(Cl)cc43)cc2)c(=O)c1=O | 260
